Taken from patent US11214803B2.

- Tested on: Yap1 mRNA
- experiment notes: Antisense inhibition of human Yap1 in A-431 cells by cEt gapmers, single dose (Example 3, RTS36584)
- Assay type: cell-based
- condition description: Table 27; Yap1 mRNA by 3-10-3 cEt gapmers targeting SEQ ID NO.: 1, and 2; percent of untreated control
Strand notation (5' to 3'): a small letter for the sugar, then the base; units joined by * are phosphorothioate-linked, units joined directly phosphodiester-linked; [ ] holds rarer units or linkages, { } end groups; capitals alone tell only the bases. k = constrained ethyl (cEt); [5mC] = 5-methylcytosine; d = 2'-deoxy (DNA)
reported endpoint: YAP1 (% UTC)
The figure you give is taken to be in % UTC; do not add the unit.

substance: 1076237 (kA*k[5mC]*kT*dA*dA*dA*dG*dG*dA*d[5mC]*dA*dA*dA*kG*kG*kT; antisense) [compound 1076237]
assayed target: Yap1 mRNA
reported endpoint: YAP1 (% UTC)
measurement units: % UTC
experimental value: 109

substance: 1075885 (antisense k[5mC]*kA*kT*dT*dA*dG*dT*dA*dA*dT*dG*dA*d[5mC]*kT*kA*kA) [compound 1075885]
assayed target: Yap1 mRNA
reported endpoint: YAP1 (% UTC)
measurement units: % UTC
experimental value: 112

substance: 1075373 (antisense kT*kA*kT*dA*dT*dA*dT*dA*dG*dA*d[5mC]*dT*dT*kG*kA*kG) [compound 1075373]
assayed target: Yap1 mRNA
reported endpoint: YAP1 (% UTC)
measurement units: % UTC
experimental value: 13

# query: YAP1 (% UTC) of entry 1074157 (kA*kG*k[5mC]*dG*dA*dG*dG*dG*d[5mC]*dT*dA*d[5mC]*dG*k[5mC]*k[5mC]*k[5mC]; antisense) [compound 1074157]
103

# query: YAP1 (% UTC) of entry 1076205 (kT*kA*kG*dT*dA*dT*dA*dA*dT*dT*d[5mC]*dA*dT*kG*kA*k[5mC]; antisense) [compound 1076205]
51

# query: YAP1 (% UTC) of entry 1074861 (kT*kG*k[5mC]*dT*d[5mC]*dT*dT*dA*d[5mC]*dA*dT*d[5mC]*dT*kA*kA*kA; antisense) [compound 1074861]
23

###

- experiment notes: Tolerability in Sprague-Dawley rats, plasma chemistry markers (Example 20)
- Assay type: in vivo
- condition description: male Sprague-Dawley rats, 50 mg/kg s.c. weekly for 6 weeks (7 doses), 48 hours after last dose
Strand notation (5' to 3'): a small letter for the sugar, then the base; units joined by * are phosphorothioate-linked, units joined directly phosphodiester-linked; [ ] holds rarer units or linkages, { } end groups; capitals alone tell only the bases. k = constrained ethyl (cEt); [5mC] = 5-methylcytosine; d = 2'-deoxy (DNA)
Mark true (1) for BUN under 30 mg/dL, false (0) if at or over.

substance: 1074755 (k[5mC]*kA*k[5mC]*dT*dT*dT*dT*dA*d[5mC]*dA*dT*dT*dA*kG*kG*kA; antisense) [compound 1074755]
assigned class: true (1)
--
substance: 1097224 (k[5mC]*kT*k[5mC]*dT*dT*dA*dT*dA*dT*dG*dG*dT*dT*kT*kT*kG; antisense) [compound 1097224]
assigned class: false (0)
--
substance: 1076187 (kG*kA*kT*dT*dT*dA*dG*dG*dA*dT*dG*d[5mC]*dA*kT*kG*kG; antisense) [compound 1076187]
assigned class: true (1)
--
substance: 1076481 (k[5mC]*kT*kA*dA*dG*dT*dA*dA*dG*dG*dT*dT*dT*k[5mC]*k[5mC]*k[5mC]) [compound 1076481]
assigned class: false (0)
--
substance: 1076453 (GTAATATTGCAATCTG; 3-10-3 cEt gapmer, further chemistry not given here) [compound 1076453]
assigned class: true (1)

Alright, here's another substance for you.
I wonder whether 958499 (ATTAGAGTATGTGGCA; 3-10-3 cEt gapmer, further chemistry not given here) [compound 958499] has BUN below 30 mg/dL. Can you tell?
true (1)

###

- Tested on: Yap1 mRNA
- experiment notes: Dose-dependent inhibition of human Yap1 in SNU-449 cells (Example 9, RTS36584)
- Type: cell-based
- condition description: free uptake, linear regression on a log/linear plot
Strand notation (5' to 3'): a small letter for the sugar, then the base; units joined by * are phosphorothioate-linked, units joined directly phosphodiester-linked; [ ] holds rarer units or linkages, { } end groups; capitals alone tell only the bases. e = 2'-O-(2-methoxyethyl) (MOE); k = constrained ethyl (cEt); [5mC] = 5-methylcytosine; d = 2'-deoxy (DNA); m = 2'-O-methyl
reported endpoint: IC50

# query: IC50 of entry 1197309 (kG*kT*kA*dA*mU*dA*dT*dT*dG*d[5mC]*dA*dA*dT*k[5mC]*kT*kG; antisense) [compound 1197309]
200 nM

# query: IC50 of entry 1198438 (kT*dG*dT*dA*dT*dG*dT*d[5mC]*dA*dG*dA*kA*eG*kA*eG*kT) [compound 1198438]
40 nM

###

Quick reference: YAP1 (% UTC) of the listed items.
- Tested on: Yap1 mRNA
- experiment notes: Antisense inhibition of human Yap1 in A-431 cells by cEt gapmers, single dose (Example 3, RTS36584)
- Type: cell-based
- condition description: Table 10; A-431 cells, 5,000 cells per well, free uptake, 2,000 nM oligonucleotide, approx. 48 hours; primer probe set RTS36584; Yap1 mRNA normalized to RIBOGREEN, percent of untreated control
Strand notation (5' to 3'): a small letter for the sugar, then the base; units joined by * are phosphorothioate-linked, units joined directly phosphodiester-linked; [ ] holds rarer units or linkages, { } end groups; capitals alone tell only the bases. k = constrained ethyl (cEt); [5mC] = 5-methylcytosine; d = 2'-deoxy (DNA)
The figure you give is taken to be in % UTC; do not add the unit.

substance: 958562 (k[5mC]*kA*kT*dT*dG*dA*dA*dA*dG*dA*d[5mC]*d[5mC]*d[5mC]*kT*kT*kA; antisense) [Compound 958562]
assayed target: Yap1 mRNA
reported endpoint: YAP1 (% UTC)
measurement units: % UTC
experimental value: 6

substance: 958527 (kG*kT*kA*dA*dG*dT*dA*dA*dG*dA*dA*d[5mC]*dA*kA*kT*k[5mC]; antisense) [Compound 958527]
assayed target: Yap1 mRNA
reported endpoint: YAP1 (% UTC)
measurement units: % UTC
experimental value: 4

substance: 958487 (kT*k[5mC]*k[5mC]*dA*dA*dA*d[5mC]*dA*dG*dG*d[5mC]*dT*d[5mC]*kA*k[5mC]*kT; antisense) [Compound 958487]
assayed target: Yap1 mRNA
reported endpoint: YAP1 (% UTC)
measurement units: % UTC
experimental value: 10

substance: 958627 (antisense kT*kT*kG*dG*dG*d[5mC]*dA*dA*dA*dG*dT*dT*d[5mC]*k[5mC]*kT*kA) [Compound 958627]
assayed target: Yap1 mRNA
reported endpoint: YAP1 (% UTC)
measurement units: % UTC
experimental value: 61

substance: 958682 (k[5mC]*k[5mC]*kA*dT*dG*dA*dG*dG*dG*dA*d[5mC]*dT*d[5mC]*k[5mC]*k[5mC]*kA; antisense) [Compound 958682]
assayed target: Yap1 mRNA
reported endpoint: YAP1 (% UTC)
measurement units: % UTC
experimental value: 123

# query: YAP1 (% UTC) of entry 958632 (antisense k[5mC]*kT*k[5mC]*d[5mC]*dG*dA*d[5mC]*dA*dG*dG*dA*dG*dA*k[5mC]*kT*kA) [Compound 958632]
55

# query: YAP1 (% UTC) of entry 958777 (antisense kG*kT*kA*dA*d[5mC]*dT*dG*dT*dT*dT*d[5mC]*dT*dA*kG*kG*kT) [Compound 958777]
10

# query: YAP1 (% UTC) of entry 958567 (kT*k[5mC]*kA*dA*d[5mC]*d[5mC]*dT*dA*dT*dG*dA*dA*d[5mC]*kT*kA*kT; antisense) [Compound 958567]
3

###

Quick reference: YAP1 (% UTC) of the listed items.
- System: Yap1 mRNA
- experiment notes: Antisense inhibition of human Yap1 in A-431 cells by cEt gapmers, single dose (Example 1, RTS4814)
- Type: cell-based
- condition description: Table 1; A-431 cells, free uptake, 2,000 nM, approximately 48 hours, RTS4814; Yap1 mRNA relative to untreated control cells
Strand notation (5' to 3'): a small letter for the sugar, then the base; units joined by * are phosphorothioate-linked, units joined directly phosphodiester-linked; [ ] holds rarer units or linkages, { } end groups; capitals alone tell only the bases. k = constrained ethyl (cEt); [5mC] = 5-methylcytosine; d = 2'-deoxy (DNA)
The figure you give is taken to be in % UTC; do not add the unit.

substance: 715517 (kG*kG*k[5mC]*d[5mC]*dT*dA*dT*dG*dA*dG*dT*d[5mC]*dA*kA*k[5mC]*k[5mC]; antisense) [Compound 715517]
assayed target: Yap1 mRNA
YAP1 (% UTC): 109
--
substance: 715463 (antisense k[5mC]*kT*kG*dT*dA*dG*d[5mC]*dT*dG*d[5mC]*dT*d[5mC]*dA*kT*kG*k[5mC]) [Compound 715463]
assayed target: Yap1 mRNA
YAP1 (% UTC): 73
--
substance: 715592 (kT*kT*k[5mC]*dT*dT*dT*dG*dG*d[5mC]*dA*dG*dA*dG*kA*kT*kA; antisense) [Compound 715592]
assayed target: Yap1 mRNA
YAP1 (% UTC): 89
--
substance: 715619 (antisense kA*kA*kA*dT*dA*dA*dG*dA*d[5mC]*dG*dG*dA*dT*kA*kA*kA) [Compound 715619]
assayed target: Yap1 mRNA
YAP1 (% UTC): 114

# query: YAP1 (% UTC) of entry 715412 (k[5mC]*kT*kG*d[5mC]*dA*dT*d[5mC]*dA*dG*dT*dA*d[5mC]*dT*kG*kG*k[5mC]; antisense) [Compound 715412]
66

# query: YAP1 (% UTC) of entry 715580 (kG*k[5mC]*k[5mC]*dT*dG*dT*d[5mC]*dT*dG*dG*dA*dA*dT*kA*k[5mC]*kA; antisense) [Compound 715580]
101
